logP reference
# Assay info: Partition coefficient (logP)
# Type: physicochemical
# Assay context: octanol/water

Recorded logP, per entry:
CCCSc1ccc2c(c1)nc(NC(=O)OC)n2C(C)=O :: 2.82
CCCSc1ccc2c(c1)nc(NC(=O)OC)n2COC(=O)c1ccc(N)cc1.Cl :: 2.91
CCCSc1ccc2nc(NC(=O)OC)[nH]c2c1 [ALBENDAZOLE] :: 3.07
CCCSc1ccc2nc(NC(=O)OC)n(C(=O)OCC)c2c1 :: 3.19
CCCSc1ccc2c(c1)nc(NC(=O)OC)n2C(=O)CCC :: 3.92
CCCSc1ccc2c(c1)nc(NC(=O)OC)n2C(=O)CC :: 3.17

Attention now shifts to the item below.
Enquiry: Name the recorded logP of the item `CCCSc1ccc2c(c1)nc(NC(=O)OC)n2C(=O)OCC` in your answer.
Return: 3.92

* * *

# Assay info: Half life of the at pH 7.4
# Assay type: ADME
half-life reference
Field: numeric (h). Do not append units.

Recorded half-life, per entry:
CCCSc1ccc2nc(NC(=O)OC)n(C(=O)OCC)c2c1 :: 2
CCCSc1ccc2c(c1)nc(NC(=O)OC)n2COC(=O)c1ccc(N)cc1.Cl :: 2.05

Enquiry: Name the recorded half-life of the item `CCCSc1ccc2c(c1)nc(NC(=O)OC)n2C(=O)OCC` in your answer.
Return: 2.02
